molecular target: D1 receptor; assay: Affinity for D1 receptor (method not described); details: read-out: D1 affinity expressed as IC50
READOUT KIND: pIC50
One number for each entry, as −log10 of the molar value.

[in] pIC50 for `CO[C@]12C[C@@H](c3nnc(-c4cncc(Br)c4)o3)CN(C)[C@@H]1Cc1cn(C)c3cccc2c13` ?
[out] 5.69

###

molecular target: D2 receptor (Rattus norvegicus); construct: Freezed corpus striatum dissected out from rats were homogenized; experiment: Affinity for dopamine 2 (D2) receptor, 3H-Spiperone binding test; conditions: rat corpus striatum, 3H-Spiperone 0.2 nM, 37° C. 20 minutes; read-out: D2 affinity expressed as IC50
Sequence (P61169 whole entry): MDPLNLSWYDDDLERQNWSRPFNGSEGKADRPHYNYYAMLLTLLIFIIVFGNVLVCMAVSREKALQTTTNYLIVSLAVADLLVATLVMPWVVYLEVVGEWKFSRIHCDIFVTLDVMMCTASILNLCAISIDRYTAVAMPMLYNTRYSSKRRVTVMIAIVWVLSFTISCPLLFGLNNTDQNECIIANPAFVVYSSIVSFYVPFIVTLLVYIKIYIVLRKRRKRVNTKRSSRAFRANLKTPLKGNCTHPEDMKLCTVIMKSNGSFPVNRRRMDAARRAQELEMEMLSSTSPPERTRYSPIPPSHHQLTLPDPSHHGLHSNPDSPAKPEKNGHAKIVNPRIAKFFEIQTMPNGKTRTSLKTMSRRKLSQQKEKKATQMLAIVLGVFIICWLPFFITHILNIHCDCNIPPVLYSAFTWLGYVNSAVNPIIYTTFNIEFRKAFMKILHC
READOUT KIND: IC50 (nM)
One number for each entry, in nM.

Worked set:
CO[C@]12C[C@@H](Cc3noc(-c4cncc(Br)c4)n3)CN(C)[C@@H]1Cc1cn(C)c3cccc2c13; 3640
CO[C@]12C[C@@H](c3nnc(-c4cncc(Br)c4)o3)CN(C)[C@@H]1Cc1cn(C)c3cccc2c13; 1950

Give one value of IC50 per listed compound.
1. CO[C@]12C[C@@H](Cc3nc(-c4cncc(Br)c4)no3)CN(C)[C@@H]1Cc1cn(C)c3cccc2c13
2. CO[C@]12C[C@@H](Cc3nnc(-c4cncc(Br)c4)o3)CN(C)[C@@H]1Cc1cn(C)c3cccc2c13

[out]
1. 2930
2. 2510

###

What IC50 was measured for each of the following?
target: 5-HT2 receptor (Rattus norvegicus); construct: Freezed cerebral cortex dissected out from rats were homogenized; from tissue; host or cells: rat cerebral cortex, crude synaptosomal membranes; assay: Affinity for serotonin 2 (5-HT2) receptor, 3H-Ketanserin binding test
Sequence (P14842 whole entry): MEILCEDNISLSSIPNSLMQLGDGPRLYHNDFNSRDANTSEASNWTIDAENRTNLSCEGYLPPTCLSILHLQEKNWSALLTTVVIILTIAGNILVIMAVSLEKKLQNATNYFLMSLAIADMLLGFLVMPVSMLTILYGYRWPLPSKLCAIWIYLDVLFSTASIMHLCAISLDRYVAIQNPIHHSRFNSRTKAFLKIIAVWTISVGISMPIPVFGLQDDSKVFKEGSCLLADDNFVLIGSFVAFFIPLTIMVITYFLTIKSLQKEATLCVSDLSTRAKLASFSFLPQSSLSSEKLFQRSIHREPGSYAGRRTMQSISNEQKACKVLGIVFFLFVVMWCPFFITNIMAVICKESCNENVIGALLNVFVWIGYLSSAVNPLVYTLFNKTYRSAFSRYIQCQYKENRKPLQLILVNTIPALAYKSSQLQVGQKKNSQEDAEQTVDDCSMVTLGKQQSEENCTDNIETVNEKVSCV
Answers are plain numbers, in nM.

Worked cases, answers included:
CO[C@]12C[C@@H](Cc3nnc(-c4cncc(Br)c4)o3)CN(C)[C@@H]1Cc1cn(C)c3cccc2c13; 890
CO[C@]12C[C@@H](Cc3nc(-c4cncc(Br)c4)no3)CN(C)[C@@H]1Cc1cn(C)c3cccc2c13; 3400

Hey, quick one: what's IC50 for each of these?
1. CO[C@]12C[C@@H](Cc3noc(-c4cncc(Br)c4)n3)CN(C)[C@@H]1Cc1cn(C)c3cccc2c13
2. CO[C@]12C[C@@H](c3nnc(-c4cncc(Br)c4)o3)CN(C)[C@@H]1Cc1cn(C)c3cccc2c13

[out]
1. 2400
2. 27

Values compiled from patent US6087371A.
